Where do the numbers come from? From ChEMBL document CHEMBL1126805.

- Test system: CAKI-1
- assay.details: Tested for cytotoxicity against CAKI-1 renal cancer
- Type: functional, Homo sapiens
- test.settings: Homo sapiens, CAKI-1
reported.property: GI50

smiles.repr | GI50
COc1ccc(/N=C/c2cc(OC)c(OC)c(OC)c2)cc1 | > 100 µM
CCOc1ccc(/N=C/c2cc(OC)c(OC)c(OC)c2)cc1 | > 100 µM
CCOc1ccc(NCc2cc(OC)c(OC)c(OC)c2)cc1 | 2.04 µM
CCc1ccc(NCc2cc(OC)c(OC)c(OC)c2)cc1 | 0.354 µM
COc1cc(/C=N/c2ccc(C(C)C)cc2)cc(OC)c1OC | > 100 µM

Here is another compound to look at.
What GI50 appears in the records for this compound with CAKI-1? `CCc1ccc(/N=C/c2cc(OC)c(OC)c(OC)c2)cc1`
> 100 µM

* * *

- Test system: OVCAR-3
- assay.details: Tested for cytotoxicity against OVCAR-3 (ovarian cancer) cell line.
- Assay type: functional, Homo sapiens
- test.settings: Homo sapiens, OVCAR-3
reported.property: GI50

Bench note: what GI50 did `CCc1ccc(/N=C/c2cc(OC)c(OC)c(OC)c2)cc1` show?
> 100 µM

Bench note: what GI50 did `COc1ccc(/N=C/c2cc(OC)c(OC)c(OC)c2)cc1` show?
> 100 µM

Bench note: what GI50 did `CCOc1ccc(/N=C/c2cc(OC)c(OC)c(OC)c2)cc1` show?
> 100 µM

Bench note: what GI50 did `CCOc1ccc(NCc2cc(OC)c(OC)c(OC)c2)cc1` show?
0.34 µM

Bench note: what GI50 did `COc1cc(CNc2ccc(C)cc2)cc(OC)c1OC` show?
0.184 µM

Bench note: what GI50 did `COc1cc(CNc2ccc(SC)cc2)cc(OC)c1OC` show?
5.93 µM

* * *

- Tested on: M14
- assay.details: Tested for cytotoxicity against M14 melanoma
- Format: functional, Homo sapiens
- test.settings: Homo sapiens, M14
# reported GI50; entries follow
// note: answer is a bare numeric in µM

See these solved cases before continuing.
smiles.repr | unit.label | GI50
CCOc1ccc(NCc2cc(OC)c(OC)c(OC)c2)cc1 | µM | 0.403
COc1cc(CNc2ccc(SC)cc2)cc(OC)c1OC | µM | 5.26

Bench note: what GI50 did `COc1ccc(NCc2cc(OC)c(OC)c(OC)c2)cc1` show?
2.38

Bench note: what GI50 did `COc1cc(CNc2ccc(C)cc2)cc(OC)c1OC` show?
0.15

Bench note: what GI50 did `CCc1ccc(NCc2cc(OC)c(OC)c(OC)c2)cc1` show?
0.315

* * *

- Test system: NCI-H522
- assay.details: Tested for cytotoxicity against NCI-H522 (non-small-cell lung cancer) cell line.
- Assay type: functional, Homo sapiens
hey, just use Criterion met if measured GI50 is less than 600 nM, otherwise Criterion not met

Recorded results for 2 compounds are shown here.
smiles.repr | category.label
COc1cc(CNc2ccc(SC)cc2)cc(OC)c1OC | Criterion not met
CCOc1ccc(NCc2cc(OC)c(OC)c(OC)c2)cc1 | Criterion met

With those in mind, consider the next compound.
Bench note: check whether `CCc1ccc(NCc2cc(OC)c(OC)c(OC)c2)cc1` shows GI50 below 600 nM
Criterion met

* * *

- test.system: Tubulin (Bos taurus, UniProt Q6B856+Q862F3)
- Sequence (Q6B856 whole entry): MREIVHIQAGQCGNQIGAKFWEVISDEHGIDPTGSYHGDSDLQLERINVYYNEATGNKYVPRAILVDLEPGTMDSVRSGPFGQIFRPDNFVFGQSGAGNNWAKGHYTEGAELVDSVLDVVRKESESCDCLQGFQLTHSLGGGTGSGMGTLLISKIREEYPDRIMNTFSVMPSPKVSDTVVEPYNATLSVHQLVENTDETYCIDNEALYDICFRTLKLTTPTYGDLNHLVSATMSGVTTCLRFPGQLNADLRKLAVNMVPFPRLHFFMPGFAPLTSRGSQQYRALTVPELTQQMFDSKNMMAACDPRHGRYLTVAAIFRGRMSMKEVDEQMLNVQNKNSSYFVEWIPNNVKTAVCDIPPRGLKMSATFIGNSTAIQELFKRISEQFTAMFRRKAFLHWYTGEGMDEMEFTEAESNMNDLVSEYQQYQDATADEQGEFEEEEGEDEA
- Sequence (Q862F3 whole entry): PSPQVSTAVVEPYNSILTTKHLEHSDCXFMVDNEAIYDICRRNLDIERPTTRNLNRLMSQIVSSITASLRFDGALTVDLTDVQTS
- assay.details: In vitro inhibition of bovine electrophoretically homogeneous tubulin polymerization.
reported.property: pIC50
For clarity, pIC50 is expressed as the negative log10 of concentration in mol/L.

smiles.repr | pIC50
COc1ccc(NCc2cc(OC)c(OC)c(OC)c2)cc1 | 5.34

Bench note: what pIC50 did `COc1ccc(/C=C\c2cc(OC)c(OC)c(OC)c2)cc1` show?
5.70

Bench note: what pIC50 did `CCOc1ccc(NCc2cc(OC)c(OC)c(OC)c2)cc1` show?
4.96

Bench note: what pIC50 did `CCc1ccc(NCc2cc(OC)c(OC)c(OC)c2)cc1` show?
5.14
